Every entry's value here was drawn from ChEMBL document CHEMBL3244300.

- System: P388
- experiment_summary: Antitumor activity against mouse P388 cells allografted in mouse assessed as increase in life span at 400 mg/kg, ip qd administered on day 1 to day 9 relative to control
- Format: functional
- cond: route intraperitoneal
Assignment: determine reported T/C for the given compounds.
Please state the value followed by its unit.

Reference set (3 entries):
Cc1[nH]c(=O)[nH]c(=O)c1/C=C/C(=O)NC(CO)C[S+]([O-])C(C)C.O (single isomer, unassigned; (-)) :: 113%
Cc1[nH]c(=O)[nH]c(=O)c1/C=C/C(=O)NC(CO)CSCc1ccccc1 (single isomer, unassigned; (-)) :: 95%
Cc1[nH]c(=O)[nH]c(=O)c1/C=C/C(=O)NC(CO)CSC(C)C (centres undefined) :: 89%

Note: attention shifts to another entry.
## Input Answer with reported T/C of Cc1[nH]c(=O)[nH]c(=O)c1/C=C/C(=O)NC(CO)C[S+]([O-])Cc1ccccc1.O (single isomer, unassigned; (-))
## Output 93%

###

- Tested on: P388
- experiment_summary: Antitumor activity against mouse P388 cells allografted in mouse assessed as increase in life span at 400 mg/kg, ip qd administered on day 1 to day 9 relative to control
- Type: functional
- cond: route intraperitoneal, 400 mg/kg
parameter: T/C (%)
Numbers only, in %.

CSCSCC(CO)NC(=O)/C=C/c1c(C)nc(O)nc1O (single isomer, unassigned; (+)) :: 14
CSCC(CO)NC(=O)/C=C/c1c(C)[nH]c(=O)[nH]c1=O (racemic) :: 88
CSCC(CO)NC(=O)/C=C/c1c(C)[nH]c(=O)[nH]c1=O (single isomer, unassigned; (-)) :: 69

## Input Answer with reported T/C of CSCSCC(CO)NC(=O)/C=C/c1c(C)nc(O)nc1O (single isomer, unassigned; (-))
## Output 86
